Tested on: LOX IMVI melanoma
Experiment: NCI tumour cell line growth inhibition, 48 h
The following molecules are listed with their measured TGI values.
Value kind: TGI (µM)

                                    molecule  value_kind  unit  rel  numeric_result
 0  COc1cc(/C=C/C(=O)c2ccc(F)cc2)ccc1OCCCCOc1cc2c(cc1OC)C(=O)N1CCCC1C=N2 (stereo not given)         TGI    µM    =            1.11
 1  CN(C)C=O.CN(C)C=O.CN1C(C(=O)Nc2ccccn2)=C([O-])c2ccccc2S1(=O)=O.CN1C(C(=O)Nc2ccccn2)=C([O-])c2ccccc2S1(=O)=O.[Cu+2]         TGI    µM    >             100
 2  O=C(O)COc1cc(-c2ccccc2F)nc2cc3c(cc12)OCO3         TGI    µM    >             100
 3  Cc1cc(NCCCNc2ccnc3cc(Cl)ccc23)nc(Nc2ccc(C(=O)N3CCCCC3)cc2)n1         TGI    µM    =            3.57
 4      Cc1nc2ccccc2c(=O)n1Nc1ccc(C(=O)O)cc1         TGI    µM    >             100
 5     CCN1C(=O)/C(=C\c2coc3ccccc3c2=O)SC1=S         TGI    µM    >             100
 6  C[C@]12CCC(=O)C=C1CC[C@@H]1[C@@H]2CC[C@]2(C)C(=O)/C(=C/c3ccncc3)C[C@@H]12         TGI    µM    =            30.8
 7  CCC(C#N)NCc1ccc(CNC(C#N)CC)cc1 (stereo not given)         TGI    µM    >             100
 8  C=C(c1ccc(OC)c(/C=C/C(=O)c2cc(OC)c(OC)c(OC)c2)c1)c1cc(OC)c(OC)c(OC)c1         TGI    µM    =            1.95
 9  O=C1C2=C(C(=O)c3c(O)ccc(O)c31)N(c1cccnc1)Cc1ccccc1O2         TGI    µM    =            0.56
10  COc1ccc(-c2cc(=O)c3c(OC)c(O)c(OC)cc3o2)cc1         TGI    µM    >             100
11                  CN1C(=O)C(C)(C)NS1(=O)=O         TGI    µM    >             100
12         ClCCN(CC#CCCCC#CCN(CCCl)CCCl)CCCl         TGI    µM    =            20.9
13  CO[C@H](C(=O)O[C@H]1C(=O)N2CCC3CCC1C32C)c1ccccc1 (stereo not given in full)         TGI    µM    >             100
14       CN(C)CCn1c2c(c3ccccc31)CCc1ccccc1-2         TGI    µM    =            32.2
15  CC[C@]12C=CCN3CC[C@@]4(c5ccc(OC)cc5N(C)[C@H]4[C@@](O)(C(=O)OC)[C@@H]1OC(=O)CCCC[P+](c1ccccc1)(c1ccccc1)c1ccccc1)[C@@H]32         TGI    µM    =            9.03
16              CCOc1cc(/C=N\O)cc(/C=N/O)c1O         TGI    µM    =            71.9
17                 c1cc2c(cc1NC1=NCCO1)CCCC2         TGI    µM    =            11.1
18  COCn1c(=O)n(C)c(=O)c2c1nc1c(c(=O)n(C)c(=O)n1COC)[n+]2[O-]         TGI    µM    =            27.7
19  Cc1c(C)n(CC(O)CNC2CCCCC2C)c2ccccc12 (stereo not given)         TGI    µM    =              28
